Just for reference, the RNAGym collection of RNA variant scans (doi:10.7554/elife.80360) is where these values come from.

B1: CPEB3 Ribozyme (parent)
chain: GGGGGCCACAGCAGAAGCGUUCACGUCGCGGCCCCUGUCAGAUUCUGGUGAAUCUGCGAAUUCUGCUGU

Variants of: B1
measurement_protocol: self-cleavage, relative activity (ratio to wild type); higher = more cleavage; co-transcriptional
quantity_kind: self-cleavage

A selection of reference data follows.
C7A A59G    0.469
C22U C66G    0.132
A13C U49G    0.933
C33U A42G    0.916
G4U G56U    0.559
G17A C57A    0.145
G11U G30C    0.455
U36A U69C    0.558

I have 3 variants here; please give me self-cleavage for each one.
1. U46G C57G
2. G31C
3. G1U U21G

[0.303, 0.255, 0.0804]
